- Assay Target: PPARγ ligand-binding domain (PPARγ LBD) (Homo sapiens, UniProt P37231)
- Construct: gene PPARG
- Sequence (P37231 238-505 limits assumed): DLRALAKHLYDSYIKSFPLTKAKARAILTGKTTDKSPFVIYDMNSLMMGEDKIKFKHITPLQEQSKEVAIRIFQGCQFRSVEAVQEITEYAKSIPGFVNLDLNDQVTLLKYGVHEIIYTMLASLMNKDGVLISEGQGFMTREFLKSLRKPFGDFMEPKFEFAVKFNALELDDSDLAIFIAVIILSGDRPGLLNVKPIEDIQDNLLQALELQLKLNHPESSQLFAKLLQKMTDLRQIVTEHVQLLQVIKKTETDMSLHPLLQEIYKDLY
- Protocol: fluorescence polarization competition (PolarScreen PPARγ Competitor Assay Green)
- Measurement Context: read-out: Binding affinityIC50
Measure Name: IC50 (µM)

Consider the following illustrative entries.
* Cc1ccc(C(c2ccc(C)o2)c2ccccc2C(=O)O)o1 | 252
* CC1(C)SC2c3ccccc3C(=O)N2C1C(=O)NC(Cc1ccccc1)C(=O)O (stereo not drawn) | 585

(a) C=C(C)COc1ccc2oc(-c3ccccc3)c(C(=O)O)c2c1
(b) CC(C)C[C@H](NC(=O)OCC1c2ccccc2-c2ccccc21)C(=O)O [FMOC, reference compound]
(c) CC(C)C(NC(=O)C(Cc1ccccc1)n1c(=O)[nH]c2ccccc2c1=O)C(=O)O (stereo not drawn)
(d) Cc1cc(C)c2c(O)nn(C3CCOC(C)(C)C3)c2n1 (stereo not drawn)
Sort these compounds on IC50 so the largest reading comes first. Respond with the label ranking, as requested.
c, d, b, a
(c: 1000 µM, d: 460 µM, b: 18.5 µM, a: 12.4 µM)
